# Assay Target: human GLP1-R (SNAP-GLP-1R expressed in HEK293 cells) (human) (UniProt P43220)
# Sequence (P43220 24-463): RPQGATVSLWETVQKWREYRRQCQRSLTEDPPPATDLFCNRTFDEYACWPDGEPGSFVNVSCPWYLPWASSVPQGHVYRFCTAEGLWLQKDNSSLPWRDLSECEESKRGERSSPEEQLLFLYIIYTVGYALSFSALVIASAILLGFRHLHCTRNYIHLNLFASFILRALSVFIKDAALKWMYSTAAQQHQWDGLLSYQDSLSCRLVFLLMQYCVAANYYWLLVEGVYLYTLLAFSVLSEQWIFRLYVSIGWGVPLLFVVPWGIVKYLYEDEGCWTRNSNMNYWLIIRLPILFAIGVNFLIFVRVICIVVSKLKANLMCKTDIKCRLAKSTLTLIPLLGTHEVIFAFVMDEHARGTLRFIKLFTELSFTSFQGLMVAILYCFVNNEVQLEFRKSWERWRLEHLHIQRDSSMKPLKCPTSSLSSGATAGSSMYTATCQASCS
# Test: cell-based or functional assay
Catalogue of Internalization % TOP values

Below: 3 binders and their reported Internalization % TOP.
# Binder, Internalization % TOP
records = [
    ("YXQGTFTSDFSKXLDKKAQXAFIEYLLEXGPSSGAPPPSEG (synthetic construct; SITE 2: note = 2-Aminoisobutyric Acid; SITE 13: note = alpha-methyl-leucine; SITE 17: note = Lysine is chemically modified through conjugation of the epsilon-amino group of the Lysine side chain with (2-[2-(2-Amino-ethoxy)-ethoxy]-acetyl)-(gamma-Glu)-CO-(CH2) 16-CO2H; SITE 20: n) [Example 57]", "73.1%"),
    ("YXQGTFTSDFSRXLDKKAQXAFIEYLLEXGPSSGAPPPSGS (synthetic construct; SITE 2: note = 2-Aminoisobutyric Acid; SITE 13: note = alpha-methyl-leucine; SITE 17: note = Lysine is chemically modified through conjugation of the epsilon-amino group of the Lysine side chain with (2-[2-(2-Amino-ethoxy)-ethoxy]-acetyl)-(gamma-Glu)-CO-(CH2) 16-CO2H; SITE 20: n) [Example 79]", "45.3%"),
    ("YXQGTFTSDFSKXLDKKAQXAFIEYLLAGGPSSGAPPPGGE (synthetic construct; SITE 2: note = 2-Aminoisobutyric Acid; SITE 13: note = alpha-methyl-leucine; SITE 17: note = Lysine is chemically modified through conjugation of the epsilon-amino group of the Lysine side chain with (2-[2-(2-Amino-ethoxy)-ethoxy]-acetyl)-(gamma-Glu)-CO-(CH2) 18-CO2H; SITE 20: n) [Example 15]", "74.9%"),
]

query: Give reported Internalization % TOP value for YXQGTFTSDFSKXLDKKAQXAFIEWLLEGGPSSGAPPPSEG (synthetic construct; SITE 2: note = 2-Aminoisobutyric Acid; SITE 13: note = alpha-methyl-leucine; SITE 17: note = Lysine is chemically modified through conjugation of the epsilon-amino group of the Lysine side chain with (2-[2-(2-Amino-ethoxy)-ethoxy]-acetyl)-(gamma-Glu)-CO-(CH2) 18-CO2H; SITE 20: n) [Example 37]
result: 68.3%

query: Give reported Internalization % TOP value for YXQGTFTSDFSXXLDKKAQXAFIEYLLEXGPSSGAPPPSEG (synthetic construct; SITE 2: note = 2-Aminoisobutyric Acid; SITE 12: note = L-ornithine; SITE 13: note = alpha-methyl-leucine; SITE 17: note = Lysine is chemically modified through conjugation of the epsilon-amino group of the Lysine side chain with (2-[2-(2-Amino-ethoxy)-ethoxy]-acetyl)2-(gamma-Glu)) [Example 71]
result: 68.6%

query: Give reported Internalization % TOP value for YXQGTFTSDFSKXLDKKAQXAFIEYLLAGGPSSGEPPPGEG (synthetic construct; SITE 2: note = 2-Aminoisobutyric Acid; SITE 13: note = alpha-methyl-leucine; SITE 17: note = Lysine is chemically modified through conjugation of the epsilon-amino group of the Lysine side chain with (2-[2-(2-Amino-ethoxy)-ethoxy]-acetyl)-(gamma-Glu)-CO-(CH2) 18-CO2H; SITE 20: n) [Example 31]
result: 67.4%

Numbers sourced from patent US20240270821A1.
